meta.source: patent US20250282881A1

// Normalized Index (off-rate ratio to EM1007-mAb044c) lookup, one value per entry
Target: T1, recombinant human OX40/His fusion protein (Novoprotein, CB17) (human, UniProt P43489 29-216)
T1 construct: Bought protein
T1 sequence: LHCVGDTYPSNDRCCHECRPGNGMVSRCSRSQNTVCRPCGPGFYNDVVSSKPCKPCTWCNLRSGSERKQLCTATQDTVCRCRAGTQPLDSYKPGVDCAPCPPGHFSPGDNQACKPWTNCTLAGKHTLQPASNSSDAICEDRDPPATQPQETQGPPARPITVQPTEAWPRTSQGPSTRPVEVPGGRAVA
Experiment: BLI (Octet RED96), antibody on AHC sensor, OX40/His as analyte, test group 4
measured.endpoint: Normalized Index (off-rate ratio to EM1007-mAb044c) (%)

| binder | units | value |
| --- | --- | --- |
| EM1007-mAb044c-15 (antibody, human IgG1, kappa, L234A L235A, V domains shown) VH: EVQLVQSGAEVKKPGSSVKVSCKASGGTFSSSWMNWVRQRPGKGLEWMGRIYPGDEITNYNAKFKDRVTITADKSTSTAYMELSSLRSEDTAVYYCARDLLMPYWGQGTLVTVSS VL: DIVMTQTAFSNPVTLGTSASISCRSSKSLLYSNAITYLYWYLQKPGQSPHLLIYQMSNLAPGVPDRFSSSGSGTDFTLRISRVEAEDVGIYYCAQNLELPFTFGSGTKLEIKR | % | 340 |
| HuEM1007-044-14 (antibody, human IgG1, kappa, L234A L235A, V domains shown, Humanized anti-OX40, human IgG1 LALA / kappa) VH: EVQLVQSGAEVKKPGSSVKVSCKASGGTFSSSWMNWVRQRPGKGLEWMGRIYPGDEITNYNAKFKDRVTITADKSTSTAYMELSSLRSEDTAVYYCARDLLMPYWGQGTLVTVSS VL: DIVMTQTPLSLPVTPGEPASISCRSSKSLLYSNAITYLYWYLQKPGQSPQLLIYQMSNLAPGVPDRFSSSGSGTDFTLKISRVEAEDVGVYYCAQNLELPFTFGQGTKLEIKR | % | 341 |
| EM1007-mAb044c-17 (antibody, human IgG1, kappa, L234A L235A, V domains shown) VH: EVQLQQSGAEVKKPGSSVKVSCKASGHAFSSSWMNWVKQRPGKGLEWIGRIYPGDEITNYNAKFKDKATLTADKSTSTAYMELSSLRSEDTAVYYCARDLLMPYWGQGTLVTVSS VL: DIVMTQTAFSNPVTLGTSASISCRSSKSLLYSNAITYLYWYLQKPGQSPHLLIYQMSNLAPGVPDRFSSSGSGTDFTLRISRVEAEDVGIYYCAQNLELPFTFGSGTKLEIKR | % | 92 |
| HuEM1007-044-16 (antibody, human IgG1, kappa, L234A L235A, V domains shown, Humanized anti-OX40, human IgG1 LALA / kappa; parental antibody of FIT1014-20a; also called HuEM1007-44-16; parental OX40 antibody) VH: EVQLQQSGAEVKKPGSSVKVSCKASGHAFSSSWMNWVKQRPGKGLEWIGRIYPGDEITNYNAKFKDKATLTADKSTSTAYMELSSLRSEDTAVYYCARDLLMPYWGQGTLVTVSS VL: DIVMTQTPLSLPVTPGEPASISCRSSKSLLYSNAITYLYWYLQKPGQSPQLLIYQMSNLAPGVPDRFSSSGSGTDFTLKISRVEAEDVGVYYCAQNLELPFTFGQGTKLEIKR | % | 126 |
